assay: A CellTox Green Cytotoxicity Assay to monitor cytotoxicity in HEK293 cells - 8 hour (AID 1224884); details: CellTox Green fluorescence; series mostly up to 76.8 µM; further: nearly all actives have a fitted effect of over 35% in size
Results filed as inconclusive are left out. Active and inactive are the calls of the source. The call rests on the fitted dose curve; in most records, active means well fitted activation curve with a large enough effect in the repeat runs; inconclusive means weak or mixed curves; inactive means flat fitted curve, though single readings scatter.
Possible outcomes: Y = active, N = inactive

molecule=Cc1ccc(-n2nc(C(C)(C)C)cc2NC(=O)Nc2ccc(OCCN3CCOCC3)c3ccccc23)cc1 class=N
molecule=O=C(O)c1c(Cl)cccc1Cl class=N
molecule=CC[C@@]1(O)C(=O)OCc2c1cc1n(c2=O)Cc2cc3c(CN(C)C)c(O)ccc3nc2-1 class=Y
molecule=CCCCCCCC(=O)[O-].CCCCCCCC(=O)[O-].[Zn+2] class=N
molecule=Nc1nc2ccccc2n1Cc1ccc(F)cc1 class=N
molecule=CN(C)[C@@H]1C(=O)C(C(N)=O)=C(O)[C@@]2(O)C(=O)C3=C(O)c4c(O)cccc4C[C@H]3C[C@@H]12 class=N
molecule=CC(C)=CCOc1ccc(/C=C/C(=O)c2ccc(OCC=C(C)C)cc2OCC(=O)O)cc1 class=N
molecule=Nc1c(Cl)cc(Cl)cc1Cl class=Y
molecule=Oc1ccc(Cl)cc1Sc1cc(Cl)ccc1O class=N
molecule=Clc1ccc2n[nH]nc2c1 class=N
molecule="Cc1cccc(N(C)C(=S)Oc2ccc3c(c2)C2CCC3C2)c1 (stereo unspecified)" class=N
molecule=O=C(NOCC1CC1)c1ccc(F)c(F)c1Nc1ccc(I)cc1Cl class=N
molecule=Nc1ccccc1O class=N
molecule=Nc1c2ccccc2nc2ccccc12 class=N
molecule=O=[N+]([O-])c1ccccc1Nc1ccccc1 class=N
molecule=C=CC(=O)OCC(CO)(COCC(COC(=O)C=C)(COC(=O)C=C)COC(=O)C=C)COC(=O)C=C class=N

* * *

assay: qHTS assay to identify small molecule agonists of the constitutive androstane receptor (CAR) signaling pathway - cell viability counter screen (AID 1224836); settings: HepG2-CYP2B6-hCAR viability, CellTiter-Fluor, 23 h, PK11195 added to every well; series mostly up to 92.4 µM; further: nearly all actives have a fitted effect of over 45% in size
Records with an inconclusive call do not appear. Active and inactive are the calls of the source. Calls follow the shape of the dose curve; as a rule, active = well fitted cell-killing curve with a large enough effect in the repeat runs; inconclusive = weak or mixed curves, or effect the other way; inactive = flat fitted curve, though single readings scatter.
Possible outcomes: active, inactive

compound="CCCCCCCCS(=O)C(C)Cc1ccc2c(c1)OCO2 (stereo unspecified)" class=inactive
compound=Clc1ccc2nsnc2c1NC1=NCCN1 class=inactive
compound=O=C1c2ccccc2Cc2ccccc21 class=inactive
compound=C/C=C(\C)C(=O)OCc1ccccc1 class=inactive
compound="CCCCC(CC)COP(=O)(O)OCC(CC)CCCC (stereo unspecified)" class=inactive
compound=O=C(NO)C1(NS(=O)(=O)c2ccc(Oc3ccc(F)cc3)cc2)CCOCC1 class=inactive
compound=CCCCCCCC/C=C\CCCCCCCCOCCO class=active
compound="O=C(OCC1CO1)C1CCCCC1C(=O)OCC1CO1 (stereo unspecified)" class=inactive
compound="CC(=O)OCC(C)OC(C)=O (stereo unspecified)" class=inactive
compound=CCCCCCCCn1sc(Cl)c(Cl)c1=O class=active
compound=CNC(=O)c1ccccc1 class=inactive
compound=OC1(c2ccc(Cl)c(C(F)(F)F)c2)CCN(CCCC(c2ccc(F)cc2)c2ccc(F)cc2)CC1 class=active
compound=O=Cc1cc(O)ccc1Br class=inactive
compound="CCC(C)(C)C1CCCCC1OC(C)=O (stereo unspecified)" class=inactive
compound=O=c1[nH]sc2ccccc12 class=active
compound=Oc1ccc2cc(SSc3ccc4cc(O)ccc4c3)ccc2c1 class=inactive
compound=CCCCCCCCOc1ccccc1C(=O)Nc1ccc(C(=O)OCC[N+](C)(CC)CC)cc1 class=inactive
compound=CC1(C)CCC(C)(C)c2cc(C(=O)Nc3ccc(C(=O)O)cc3)ccc21 class=inactive
compound=CC/C(=C(\c1ccc(O)cc1)c1ccc(OCCN(C)C)cc1)c1ccccc1 class=active
compound="CCOc1nc2cccc(C(=O)OC(C)OC(=O)OC3CCCCC3)c2n1Cc1ccc(-c2ccccc2-c2nn[nH]n2)cc1 (stereo unspecified)" class=inactive
compound=c1ccc(CSCc2ccccc2)cc1 class=inactive
compound=Oc1cccc(-c2c3nc(c(-c4cccc(O)c4)c4ccc([nH]4)c(-c4cccc(O)c4)c4nc(c(-c5cccc(O)c5)c5ccc2[nH]5)CC4)C=C3)c1 class=active
compound=Cc1cc(O)c2ccccc2c1O class=inactive
compound=O=C(O)c1c(Cl)cccc1Cl class=inactive
compound=Cc1cc(N)c(S(=O)(=O)O)cc1Cl class=inactive
compound=O=C(NOCC1CC1)c1ccc(F)c(F)c1Nc1ccc(I)cc1Cl class=inactive
compound=O=c1[nH]sc2cc(Cl)ccc12 class=inactive
compound=CCCCN(CCCC)c1ccc(C(=O)c2ccccc2C(=O)O)c(O)c1 class=inactive
compound=O=C(Nc1cccc(Cl)c1)OCC#CCCl class=active
compound=O=c1[nH]cnc2nc[nH]c12 class=inactive
compound=Cn1cc(C(=O)[C@@H]2CCc3nc[nH]c3C2)c2ccccc21 class=inactive
compound="CCC(C)Nc1ccc(NC(C)CC)cc1 (stereo unspecified)" class=active
compound=CCCCCCCCCCCCCCCS(=O)(=O)Oc1ccccc1 class=inactive
compound=CCCCCCC[N+](CC)(CC)CCCCc1ccc(Cl)cc1 class=inactive
compound=Nc1cc(C(F)(F)F)ccc1S class=inactive
compound=CCCCCCCC[N+](CCCCCCCC)(CCCCCCCC)CCCCCCCC class=active
compound=CC(C)(C)C(=O)OCOC(=O)[C@@H]1N2C(=O)[C@@H](NC(=O)[C@H](N)c3ccccc3)[C@H]2SC1(C)C class=inactive
compound=N/C(=N\N=C\c1ccc(Cl)cc1)N/N=C/c1ccc(Cl)cc1 class=inactive
compound="CC1=NC(C)OC1C (stereo unspecified)" class=inactive
compound=Nc1c2ccccc2nc2ccccc12 class=inactive
compound=C[C@]12CCC(=O)C=C1CC[C@@H]1[C@@H]2[C@@H](O)C[C@@]2(C)[C@H]1CC[C@]2(O)C(=O)COC(=O)CCC(=O)O class=inactive
compound=CCCCCCCCCCCCCCCC(=O)OC[C@H](O)[C@H]1OC(=O)C(O)=C1O class=inactive
compound=CCOC(=O)/C=C(C)/C=C/C=C(C)/C=C/c1c(C)cc(OC)c(C)c1C class=inactive
compound=OCCCCCCCCCCCCBr class=inactive
compound=[O-][n+]1ccccc1SSc1cccc[n+]1[O-] class=active
compound=N#CSc1ccc(N)c([N+](=O)[O-])c1 class=active
compound=CCCCCCCCCCC=O class=inactive
compound=CCN1/C(=C/C=C/c2sc3ccccc3[n+]2CC)Sc2ccccc21 class=active
compound=O=C1CCCc2c1cc1ccc3cccc4ccc2c1c34 class=inactive
compound=Cc1cc(O)c(Cl)c(C)c1Cl class=inactive
compound=CCCCCCCCCCn1cc[n+](CCCCCCCCCC)c1C class=active
